Molecular target: FXR ligand binding domain (GST-FXR LBD fusion protein) (Homo sapiens, UniProt Q96RI1)
Sequence (Q96RI1 193-472 isoform Q96RI1-2 limits assumed): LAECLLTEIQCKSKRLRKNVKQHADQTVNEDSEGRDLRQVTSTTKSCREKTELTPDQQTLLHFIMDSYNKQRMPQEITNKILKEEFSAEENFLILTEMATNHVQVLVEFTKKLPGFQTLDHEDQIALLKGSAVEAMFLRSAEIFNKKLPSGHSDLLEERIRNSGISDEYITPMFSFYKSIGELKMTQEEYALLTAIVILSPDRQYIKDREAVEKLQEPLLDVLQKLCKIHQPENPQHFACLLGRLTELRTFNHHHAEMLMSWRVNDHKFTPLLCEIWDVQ
Assay: Radioligand binding assay (SPA, radioligand displacement)
Details: 40 nM GST-FXR LBD on glutathione yttrium silicate SPA beads; radioligand e.g. 20 nM 2,N-dicyclohexyl-2-[2-(2,4 dimethoxy-phenyl)-benzoimidazol-1-yl]-acetamide
pIC50: −log10 of the molar value.
assayEndpoint: pIC50

[[record]]
compound = "O=C(NC1CCCCC1)C(C1CCCCC1)n1c(COc2ccccn2)nc2cc(F)ccc21 (stereo not drawn) [Example 56]"
observedresult = 6.98

[[record]]
compound = "Cc1cc(Cl)ccc1O[C@H](C)c1nc2ccc(F)cc2n1[C@H](C(=O)NC1CCCCC1)C1CCCCC1 [Example 31]"
observedresult = 6.93

[[record]]
compound = "Cc1cccc(OCc2nc3cc(F)ccc3n2C(C(=O)NC2CCCCC2)C2CCCCC2)c1C (stereo not drawn) [Example 49]"
observedresult = 7.42

